Molecular target: full-length beta-Catenin (Uniprot ID P35222) (Homo sapiens, UniProt P35222)
Construct: 10 nM full-length beta-Catenin (Uniprot ID P35222)
Sequence (P35222 whole entry): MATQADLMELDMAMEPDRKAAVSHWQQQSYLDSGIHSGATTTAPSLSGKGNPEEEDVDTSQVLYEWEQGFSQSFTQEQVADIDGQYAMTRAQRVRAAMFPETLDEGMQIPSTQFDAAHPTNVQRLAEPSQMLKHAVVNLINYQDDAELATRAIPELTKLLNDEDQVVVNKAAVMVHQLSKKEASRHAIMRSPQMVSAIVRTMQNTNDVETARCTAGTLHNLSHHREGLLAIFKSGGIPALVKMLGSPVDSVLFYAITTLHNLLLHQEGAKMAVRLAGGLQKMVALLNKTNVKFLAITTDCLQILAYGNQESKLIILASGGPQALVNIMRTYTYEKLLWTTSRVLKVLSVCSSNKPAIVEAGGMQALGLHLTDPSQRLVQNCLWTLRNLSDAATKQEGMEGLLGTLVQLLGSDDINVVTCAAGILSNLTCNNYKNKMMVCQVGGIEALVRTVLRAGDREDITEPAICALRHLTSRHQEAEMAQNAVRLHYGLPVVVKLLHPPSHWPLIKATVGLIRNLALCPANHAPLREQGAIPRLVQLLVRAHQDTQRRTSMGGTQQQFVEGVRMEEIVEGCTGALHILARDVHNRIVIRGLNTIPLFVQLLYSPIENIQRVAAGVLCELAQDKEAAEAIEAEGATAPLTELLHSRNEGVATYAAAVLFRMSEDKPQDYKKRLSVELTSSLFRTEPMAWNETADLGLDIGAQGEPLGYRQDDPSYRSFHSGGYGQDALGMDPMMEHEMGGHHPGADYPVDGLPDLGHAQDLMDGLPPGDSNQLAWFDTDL
Test: Fluorescence polarization IC50 (beta-catenin / 5FAM-TCF4 10-53 competition)
Format: binding
Details: read-out: beta-Catenin FP IC50
pIC50: −log10 of the molar value.
# pIC50 per entry

compound: CC(=O)N1CCC[C@]12CC=CCCCC1(CCCC=CCCCOC(=O)N3CC[C@@](C(=O)N[C@@H](Cc4cscn4)C(=O)N[C@@H](Cc4csc5ccccc45)C(=O)N[C@@H](CCC(N)=O)C(N)=O)(C3)NC(=O)[C@H](CC(N)=O)NC(=O)[C@H](Cc3ccccc3)NC(=O)[C@H](C)NC(=O)[C@H](C)NC(=O)[C@H](CC(=O)O)NC(=O)[C@H](CC(=O)O)NC1=O)NC(=O)[C@H](CC(C)(C)C)NC(=O)[C@H](CC(=O)O)NC2=O (some centres unmarked) [I-811]
pIC50: 7.49
//
compound: C#CCOCCOCCOCCOCCC(=O)NCCCC[C@H](NC(=O)[C@H](CCC(N)=O)NC(=O)[C@H](Cc1csc2ccccc12)NC(=O)[C@H](Cc1ccsc1)NC(=O)[C@]12CCN(C1)C(=O)OCCCC=CCCCC1(CCCC=CC[C@]3(CCCN3C(C)=O)C(=O)N[C@@H](CC(=O)O)C(=O)N[C@@H](CC(C)(C)C)C(=O)N1)C(=O)N[C@@H](CC(=O)O)C(=O)N[C@@H](CC(=O)O)C(=O)N[C@@H](C)C(=O)N[C@@H](C)C(=O)N[C@@H](Cc1ccccc1)C(=O)N[C@@H](CC(N)=O)C(=O)N2)C(N)=O (some centres unmarked) [I-938]
pIC50: 8.05
//
compound: CC(=O)N1CCC[C@]12CC=CCCCC1(CCCC=CCCCOC(=O)N3CC[C@@](C(=O)N[C@@H](Cc4ccccc4Cl)C(=O)N[C@@H](Cc4csc5ccccc45)C(=O)N[C@@H](CCC(N)=O)C(N)=O)(C3)NC(=O)[C@H](CC(C)C)NC(=O)[C@H](Cc3ccccc3)NC(=O)[C@H](C)NC(=O)[C@H](C)NC(=O)[C@H](CCC(=O)O)NC(=O)[C@H](CC(=O)O)NC1=O)NC(=O)[C@H](CC1CCCCC1)NC(=O)[C@H](CC(=O)O)NC2=O (some centres unmarked) [I-1077]
pIC50: 6.49
//
compound: CC(=O)N1CCC[C@]12CC=CCCCC1(CCCC=CCCCOC(=O)N3CC[C@@](C(=O)N[C@@H](Cc4ccccc4)C(=O)N[C@@H](Cc4csc5ccccc45)C(=O)N[C@@H](CO)C(N)=O)(C3)NC(=O)[C@H](CO)NC(=O)[C@H](Cc3ccccc3)NC(=O)[C@H](C)NC(=O)[C@H](C)NC(=O)[C@H](CC(=O)O)NC(=O)[C@H](CC(=O)O)NC1=O)NC(=O)[C@H](CC(C)(C)C)NC(=O)[C@H](CC(=O)O)NC2=O (some centres unmarked) [I-1099]
pIC50: 8.05
//
compound: CC(=O)N1CCC[C@]12CC=CCCCC1(CCCC=CCCCOC(=O)N3CC[C@@](C(=O)N[C@@H](Cc4ccccc4Cl)C(=O)N[C@@H](Cc4csc5ccccc45)C(=O)N[C@@H](CCC(N)=O)C(N)=O)(C3)NC(=O)[C@H]([C@@H](C)O)NC(=O)[C@H](Cc3ccccc3)NC(=O)[C@H](C)NC(=O)[C@H](C)NC(=O)[C@H](CC(=O)O)NC(=O)[C@H](CC(=O)O)NC1=O)NC(=O)[C@H](Cc1ccccc1)NC(=O)[C@H](CC(=O)O)NC2=O (some centres unmarked) [I-1043]
pIC50: 7.92

====

Molecular target: beta-catenin/TCF4 engagement (Homo sapiens)
Construct: expressed in transfected cells; host or cells: HEK293
Assay: Nano-BRET target engagement assay (B-cat-Halo & TCF4-Luc in HEK293 cells)
Type: cell-based
Conditions: HEK293, 10 uM; read-out: NanoBRET % inh @ 10 uM
Entries and their measured inhibition at 10 µM follow.
metric: inhibition at 10 µM (%)

compound: CC(=O)N1CCC[C@]12CC=CCCCC1(CCCC=CCCCOC(=O)N3CC[C@@](C(=O)N[C@@H](Cc4ccsc4)C(=O)N[C@@H](Cc4csc5ccccc45)C(=O)N[C@H](CC(N)=O)C(N)=O)(C3)NC(=O)[C@H](CC(N)=O)NC(=O)[C@H](Cc3ccccc3)NC(=O)[C@H](C)NC(=O)[C@H](C)NC(=O)[C@H](CC(=O)O)NC(=O)[C@H](CC(=O)O)NC1=O)NC(=O)[C@H](CC(C)(C)C)NC(=O)[C@H](CC(=O)O)NC2=O (stereo partly shown) [I-818]
measurement_target: beta-catenin/TCF4 engagement (Homo sapiens)
units_text: %
recorded_number: 31.4

compound: CC(=O)N1CCC[C@]12CC=CCCCC1(CCCC=CCCCOC(=O)N3CC[C@@](C(=O)N[C@@H](Cc4ccsc4)C(=O)N[C@@H](Cc4csc5ccccc45)C(=O)N[C@@H](CCC(N)=O)C(N)=O)(C3)NC(=O)[C@H](CC(N)=O)NC(=O)[C@H](Cc3ccccc3)NC(=O)[C@H](C)NC(=O)[C@H](C)NC(=O)[C@H](CC(C)C)NC(=O)[C@H](CC(=O)O)NC1=O)NC(=O)[C@H](CC(C)(C)C)NC(=O)[C@H](CC(=O)O)NC2=O (stereo partly shown) [I-846]
measurement_target: beta-catenin/TCF4 engagement (Homo sapiens)
units_text: %
recorded_number: 4.3

compound: CC(=O)N1CCC[C@]12CC=CCCCC1(CCCC=CCCCOC(=O)N3CC[C@@](C(=O)N[C@@H](Cc4ccsc4)C(=O)N[C@@H](Cc4csc5ccccc45)C(=O)N[C@@H](Cc4c[nH]cn4)C(=O)N[C@H](C)C(N)=O)(C3)NC(=O)[C@H](CC(N)=O)NC(=O)[C@H](Cc3ccccc3)NC(=O)[C@H](C)NC(=O)[C@H](C)NC(=O)[C@H](CC(=O)O)NC(=O)[C@H](CC(=O)O)NC1=O)NC(=O)[C@H](CC(C)(C)C)NC(=O)[C@H](CC(=O)O)NC2=O (stereo partly shown) [I-823]
measurement_target: beta-catenin/TCF4 engagement (Homo sapiens)
units_text: %
recorded_number: 37.5

compound: CC(=O)N1CCC[C@]12CC=CCCCC1(CCCC=CCCCCCC[C@@](C)(C(=O)N[C@@H](Cc3ccccc3)C(=O)N[C@@H](C)C(=O)N[C@@H](CCC(N)=O)C(N)=O)NC(=O)[C@H](C(C)C)NC(=O)[C@H](Cc3ccccc3)NC(=O)[C@H](C)NC(=O)[C@H](C)NC(=O)[C@H](CC(=O)O)NC(=O)[C@H](CC(=O)O)NC1=O)NC(=O)[C@H](C)NC(=O)[C@H](CC(=O)O)NC2=O (stereo partly shown) [I-357]
measurement_target: beta-catenin/TCF4 engagement (Homo sapiens)
units_text: %
recorded_number: -5.3

====

Biological target: beta-catenin/TCF4 engagement (Homo sapiens)
Construct: expressed in transfected cells; host or cells: HEK293
Assay: Nano-BRET target engagement assay (B-cat-Halo & TCF4-Luc in HEK293 cells)
Format: cell-based
Settings: absolute IC50; read-out: NanoBRET Abs IC50
The entries below are paired with their reported IC50.
metric: IC50 (nM)

compound: CCS(=O)(=O)N1CCN(C(=O)CC[C@@H]2NC(=O)[C@H](Cc3cccc(C(=O)O)c3)NC(=O)[C@H](CC(=O)O)NC(=O)C3(CCCC=CCCCOC(=O)N4CC[C@@](C(=O)N[C@@H](Cc5ccccc5C(F)(F)F)C(=O)N[C@@H](Cc5csc6ccccc56)C(=O)N[C@@H](C)C(N)=O)(C4)NC(=O)[C@H](CC(C)C)NC(=O)[C@H](Cc4ccccc4)NC(=O)[C@H](C)NC2=O)CCCC=CC[C@]2(CCCN2C(C)=O)C(=O)N[C@@H](CC(=O)O)C(=O)N[C@@H](CC(C)(C)C)C(=O)N3)CC1 (some centres unmarked) [I-2321]
units_text: nM
value_comparator: =
recorded_number: 1700
--
compound: CC(=O)N1CCC[C@]12CC=CCCCC1(CCCC=CCCCOC(=O)N3CC[C@@](C(=O)N[C@@H](Cc4ccsc4)C(=O)N[C@@H](Cc4csc5ccccc45)C(=O)N[C@@H](CC(C)C)C(N)=O)(C3)NC(=O)[C@H]([C@@H](C)O)NC(=O)[C@H](Cc3ccccc3)NC(=O)[C@H](C)NC(=O)[C@H](CCCCNC(C)C)NC(=O)[C@H](CN(CC(=O)O)CC(F)(F)F)NC(=O)[C@H](CC(=O)O)NC1=O)NC(=O)[C@H](CC(C)(C)C)NC(=O)[C@H](CC(=O)O)NC2=O (some centres unmarked) [I-1760]
units_text: nM
value_comparator: >
recorded_number: 20000

# credit: patent US20240116985A1
